Consider the following compounds and their measured collision cross section (N2) readings.
- assay_setup: [M-H]-; instrument: DT; single field, calibrated with Agilent tune mix (Agilent)
quantity_measured: collision cross section (N2)

> print(dat)
                                   compound  data.value
1                      O=C(O)CCCCCCCCC(=O)O    141.9 Å²
2                             CC(=O)NCCCCCN   131.77 Å²
3  Nc1nc(=O)c2c([nH]1)NCC(CNc1ccc(C(=O)N[C@@H](CCC(=O)O)C(=O)O)cc1)=N2 [7,8-Dihydrofolate]   196.42 Å²
4          CCCCCCCC/C=C\CCCCCCCCCCCCCC(=O)O   196.32 Å²
5  CCCCCCCCCCCCC/C=C/[C@@H](O)[C@H](CO)NC(=O)CCCCCCCCCCCCCCCCC   248.67 Å²
6  CC(C)C(O)(CC(=O)O)C(=O)O (stereo not drawn)   128.12 Å²
7                      O=C(O)CNC(=O)c1ccco1   134.65 Å²
8                    CCCCCCCCCCCCCCCCC(=O)O   170.78 Å²

====

- assay_setup: [M-H]-; instrument: DT; single field, calibrated with Agilent tune mix (Agilent)

compound	unit_abbrev	collision cross section (N2)
CCCCC/C=C\C/C=C\CCCCCCCCCC(=O)OC[C@@H](O)COP(=O)(O)OCCN	Å²	216.4
CCCC/C=C\CCCCCCCC(=O)OC[C@H](COP(=O)(O)OC[C@@H](O)CO)OC(=O)CCCCCCCCCCC/C=C\C/C=C\CCCCC	Å²	272.8
CCCCCC/C=C\CCCCCCCC(=O)OC[C@H](COP(=O)(O)O[C@H]1C(O)C(O)C(O)[C@@H](O)C1O)OC(=O)CCCCCCCCCCCCCCCCCCCCC (some centres undefined)	Å²	296.1
CCCCCCCCCCCCCCCCCC(=O)N[C@@H](CO)[C@H](O)CCCCCCCCCCCCCCC	Å²	249
CCCCC/C=C\C/C=C\CCCCCCCCCC(=O)O[C@H](CO/C=C\CCCCCCCCCCCCCC)COP(=O)(O)OCCN	Å²	267.6
CCCCCCCCCCCCCCCC(=O)OC[C@@H](O)COP(=O)(O)OC[C@H](N)C(=O)O	Å²	216.4
CCCCC/C=C\C/C=C\C/C=C\CCCCCCC(=O)OC[C@@H](O)COP(=O)(O)OC[C@H](N)C(=O)O	Å²	221.5
CCCCC/C=C\C/C=C\CCCCCCCCCCCC(=O)O[C@H](COC(=O)CCCCCCCCCCC)COP(=O)(O)OC[C@@H](O)CO	Å²	268.7
CCCCC/C=C\C/C=C\CCCCCCCC(=O)O[C@H](COC(=O)CCCCCCCCCCCCCCCCC)COP(=O)(O)O	Å²	260.2
CCCCCCCCCC/C=C\CCCCCCCCCC(=O)O[C@H](COC(=O)CCCCCCCCCCCCC)COP(=O)(O)O[C@H]1C(O)C(O)C(O)[C@@H](O)C1O (some centres undefined)	Å²	290.5
CCCCCCCCCCCCCCCC/C=C\OC[C@H](COP(=O)(O)OCCN)OC(=O)CCCCCCCCCCCCCCCCC	Å²	268.4
CCCCCCCCCCCCC=CC[C@@H](O)[C@H](CO)NC(=O)CC=CCCCCCCCCCCCCCCCCCC	Å²	259.8
CCCCCCCCCCCCCCCCC(=O)O[C@H](COC(=O)CCCCCCCCCCCCCC)COP(=O)(O)OC[C@@H](O)CO	Å²	265.1
CCCCC/C=C\C/C=C\CCCCCCCCCCCC(=O)O[C@H](COC(=O)CCCCCCCCCCCC)COP(=O)(O)O[C@H]1C(O)C(O)C(O)[C@@H](O)C1O (some centres undefined)	Å²	285.3
CCCCC/C=C\C/C=C\C/C=C\CCCCC(=O)OC[C@H](COP(=O)(O)OC[C@H](N)C(=O)O)OC(=O)CCCCCCCCCCC/C=C\C/C=C\CCCCC	Å²	285.7
CCCCCCCC/C=C\CCCCCCCCCC(=O)O[C@H](COC(=O)CCCCCCCCCCCCC)COP(=O)(O)OC[C@H](N)C(=O)O	Å²	273.1
CCCCC/C=C\C/C=C\C/C=C\C/C=C\CCCCCC(=O)O[C@H](COC(=O)CCCCCCC/C=C\C/C=C\CCCCC)COP(=O)(O)OCCN	Å²	276.2
CCCCC/C=C\C/C=C\C/C=C\CCCCCCC(=O)O[C@H](COC(=O)CCCCCCC/C=C\C/C=C\CCCCC)COP(=O)(O)OCCN	Å²	271.2
CCCCC/C=C\C/C=C\CCCCCCCCCCCC(=O)O[C@H](COC(=O)CCCCCCC/C=C\CCCCC)COP(=O)(O)O[C@H]1C(O)C(O)C(O)[C@@H](O)C1O (some centres undefined)	Å²	290.1
CCCCCCCCCCCCCCCCC(=O)OC[C@@H](O)COP(=O)(O)OCCN	Å²	210.1
CCCC/C=C\CCCCCCCC(=O)O[C@H](CO/C=C\CCCCCCCCCCCCCCCCCC)COP(=O)(O)OCCN	Å²	262.2
CCCCC/C=C\C/C=C\C/C=C\C/C=C\CCCCCC(=O)O[C@H](COC(=O)CCCCCCC/C=C\C/C=C\CCCCC)COP(=O)(O)OC[C@H](N)C(=O)O	Å²	284.9
CCCCCCCCCCCCCCCCC(=O)OC[C@@H](O)COP(=O)(O)O[C@H]1C(O)C(O)C(O)[C@@H](O)C1O (some centres undefined)	Å²	232.6
CCCCCCCC/C=C\CCCCCCCCCC(=O)O[C@H](COC(=O)CCCCCCCCCCCCCC)COP(=O)(O)O[C@H]1C(O)C(O)C(O)[C@@H](O)C1O (some centres undefined)	Å²	286.9

====

- assay_setup: [M+H]+; instrument: TW; calibrated with phosphatidylcholines (ESI+) and phosphatidylethanolamines (ESI-)
Below, each entry is listed with its recorded collision cross section (N2).
quantity_measured: collision cross section (N2) (Å²)

> print(dat)
                            molecule.smiles             quantity.measured  unit.abbrev  data.value
1  CCCCCC/C=C\CCCCCCCC(=O)O[C@H](CO/C=C\CCCCCCCCCCCCCCCCCC)COP(=O)(O)OCCN  collision cross section (N2)           Å²       279.7
2  CCCCC/C=C\C/C=C\C/C=C\CCCCC(=O)OC[C@H](COP(=O)([O-])OCC[N+](C)(C)C)OC(=O)CCCCCCC/C=C\CCCCCCCC  collision cross section (N2)           Å²         286
3  CCCCC/C=C\C/C=C\C/C=C\C/C=C\CCCCCC(=O)O[C@H](CO/C=C\CCCCCCCCCCCCCC)COP(=O)(O)OCCN  collision cross section (N2)           Å²       280.6
4  CCCCCCCCCCCCC=CC[C@@H](O)[C@H](CO)NC(=O)CC=CCCCCCCCCCCCCCCCCCC  collision cross section (N2)           Å²       270.2
5  CCCCCCCCCCCCC=CC[C@@H](O)[C@H](COP(=O)([O-])OCC[N+](C)(C)C)NC(=O)CCCCCCCCCCCCCCCCC  collision cross section (N2)           Å²       286.6
6  CC/C=C\C/C=C\C/C=C\C/C=C\C/C=C\CCCCCC(=O)O[C@H](COC(=O)CCC/C=C\C/C=C\C/C=C\C/C=C\C/C=C\CC)COP(=O)(O)OCCN  collision cross section (N2)           Å²         285
7  CCCCC/C=C\C/C=C\C/C=C\CCCCCCC(=O)OC[C@@H](O)COP(=O)([O-])OCC[N+](C)(C)C  collision cross section (N2)           Å²         239

====

- assay_setup: [M+H]+; instrument: TW; calibrated with polyalanine and drug standards
collision cross section (N2) reference
quantity_measured: collision cross section (N2) (Å²)

> print(dat)
                                    molecule  unit.abbrev  data.value
 1  Cc1cccc(C)c1NC(=O)c1ccccc1C(=O)O [FTAXILIDE]           Å²       159.2
 2  COc1cc2c(c(OC)c1OC)-c1ccc(O)c(=O)cc1[C@@H](N)CC2           Å²         181
 3  COc1cc(NS(C)(=O)=O)ccc1Nc1c2ccccc2nc2ccccc12           Å²       193.1
 4  CC(O)Cn1cnc2c1c(=O)n(C)c(=O)n2C (stereo not drawn)           Å²       149.1
 5  COc1cc2c(cc1OC)Cc1cc(OC)c(OC)cc1Cc1cc(OC)c(OC)cc1C2           Å²       213.9
 6  CC(=O)Oc1c(C)c(C)c2c(c1C)CCC(C)(CCCC(C)CCCC(C)CCCC(C)C)O2 (stereo not drawn) [alpha-TOCHOPHERYL ACETATE]           Å²       230.2
 7                        O=c1oc2cc(O)ccc2s1           Å²       130.2
 8  Nc1ncnc2c1ncn2[C@@H]1O[C@H](CO)[C@@H](O)[C@@H]1O           Å²       156.4
 9  COc1ccc2c(c1)c(CC(=O)OCC(=O)O)c(C)n2C(=O)c1ccc(Cl)cc1           Å²         191
10    CCn1cc(C(=O)O)c(=O)c2cnc(N3CCNCC3)nc21           Å²         171
11         COc1ccc2oc(-c3ccccc3OC)cc(=O)c2c1           Å²       161.4
12  OCCN1CCN(CCCN2c3ccccc3Sc3ccc(Cl)cc32)CC1           Å²         192
13  Clc1ccc(CCC(Cn2ccnc2)Sc2c(Cl)cccc2Cl)cc1 (stereo not drawn)           Å²       186.5
